Data credit: patent US20200246316A1

test: Dog 28-day repeat dose PO study; format: in vivo; details: male, beagle, dog, in vivo, po, 250 mg/kg, Day 1, 250 mg/kg PO, M; read-out: Cmax
Where a name gives a salt, the structure may show the parent alone.
Test readout: Cmax (µg/mL)
Only the number, expressed in µg/mL, is required.

[Q] Item CC1(C)SC(Nc2ccccc2O)=N[C@@H]1C(=O)O [Compound 1, mono-hydrochloride] has what recorded Cmax?
[A] 104

* * *

assay: in vivo; conditions: male, Sprague Dawley, rat, po, 100 mg/kg, Compound 1 Concentration in rat plasma, 100 mg/kg single PO, 1 h post-dose, Average
Where a name gives a salt, the structure may show the parent alone.
Test readout: concentration at 1 h (ng/mL)
Only the number, expressed in ng/mL, is required.

[Q] Item CC1(C)SC(Nc2ccccc2O)=N[C@@H]1C(=O)O [Compound 1, mono-hydrochloride] has what recorded concentration at 1 h?
[A] 14900
